# credit: patent US12441726B2

target: BRM (Homo sapiens); assay: ATPase catalytic activity assay (ADP-Glo), BRM; conditions: BRM ATPase: IC50 (uM), 30 nM BRM, 400 μM ATP
Sequence (P51531 whole entry): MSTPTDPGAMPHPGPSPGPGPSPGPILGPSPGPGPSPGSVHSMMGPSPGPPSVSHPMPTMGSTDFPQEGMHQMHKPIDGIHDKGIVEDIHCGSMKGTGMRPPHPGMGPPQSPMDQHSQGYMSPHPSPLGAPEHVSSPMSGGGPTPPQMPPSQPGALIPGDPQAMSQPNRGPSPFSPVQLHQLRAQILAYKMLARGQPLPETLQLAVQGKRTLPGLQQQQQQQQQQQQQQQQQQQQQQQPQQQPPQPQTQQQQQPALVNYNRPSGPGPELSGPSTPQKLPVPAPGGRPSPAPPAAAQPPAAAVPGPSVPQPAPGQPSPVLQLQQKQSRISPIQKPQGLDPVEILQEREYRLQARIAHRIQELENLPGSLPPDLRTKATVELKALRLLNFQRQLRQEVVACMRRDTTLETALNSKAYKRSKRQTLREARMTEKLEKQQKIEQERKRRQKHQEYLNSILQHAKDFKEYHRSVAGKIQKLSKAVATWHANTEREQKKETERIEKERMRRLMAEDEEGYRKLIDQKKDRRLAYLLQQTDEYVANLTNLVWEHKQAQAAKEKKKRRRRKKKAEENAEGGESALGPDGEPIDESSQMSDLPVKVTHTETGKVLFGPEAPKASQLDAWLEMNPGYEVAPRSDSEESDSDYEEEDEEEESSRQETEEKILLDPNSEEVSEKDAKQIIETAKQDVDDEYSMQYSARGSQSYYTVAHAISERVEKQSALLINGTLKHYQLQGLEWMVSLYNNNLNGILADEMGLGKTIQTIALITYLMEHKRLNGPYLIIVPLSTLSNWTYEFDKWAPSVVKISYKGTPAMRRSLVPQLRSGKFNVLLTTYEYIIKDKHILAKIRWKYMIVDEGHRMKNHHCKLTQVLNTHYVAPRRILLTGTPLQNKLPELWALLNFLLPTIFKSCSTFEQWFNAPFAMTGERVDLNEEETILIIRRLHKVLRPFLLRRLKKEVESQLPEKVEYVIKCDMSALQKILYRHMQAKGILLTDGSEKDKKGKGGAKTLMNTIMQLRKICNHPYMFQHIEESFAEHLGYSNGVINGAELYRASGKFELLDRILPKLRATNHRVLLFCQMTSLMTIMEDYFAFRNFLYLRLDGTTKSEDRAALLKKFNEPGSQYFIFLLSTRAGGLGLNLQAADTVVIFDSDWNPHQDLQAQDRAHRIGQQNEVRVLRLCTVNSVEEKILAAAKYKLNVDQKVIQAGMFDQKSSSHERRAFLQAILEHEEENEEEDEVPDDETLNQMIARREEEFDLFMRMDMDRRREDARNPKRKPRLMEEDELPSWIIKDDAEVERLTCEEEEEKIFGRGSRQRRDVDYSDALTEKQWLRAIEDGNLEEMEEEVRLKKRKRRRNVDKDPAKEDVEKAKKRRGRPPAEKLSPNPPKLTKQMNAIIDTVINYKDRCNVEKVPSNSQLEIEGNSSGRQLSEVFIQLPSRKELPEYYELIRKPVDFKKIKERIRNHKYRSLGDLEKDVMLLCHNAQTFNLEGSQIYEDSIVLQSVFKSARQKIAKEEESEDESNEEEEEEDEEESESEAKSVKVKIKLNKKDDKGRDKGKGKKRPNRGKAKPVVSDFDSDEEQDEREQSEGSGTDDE
measure-name: IC50

IN: What IC50 value was documented for this compound, [2H]C1([2H])OC[C@@](C)(F)c2cc(C(=O)NCc3cc4nc(-c5cncc(C6CC6)n5)ccc4cn3)cnc21 ?
OUT: 0.1 to 0.5 µM

IN: Same thing, different compound: C[C@@]1(C#N)COCc2ccc(C(=O)NCc3cc4nc(-c5cc(F)cc(F)c5)ccc4cn3)cc21
OUT: 0.1 to 0.5 µM

IN: Can you check C[C@@]1(C#N)COCc2ncc(C(=O)NCc3cc4nc(-c5cncc(C6CC6)n5)ccc4cn3)cc21 next?
OUT: < 0.1 µM

IN: Now this one: C[C@@]1(C#N)COCc2ccc(C(=O)NCc3cc4nc(C5CC5)ccc4cn3)cc21
OUT: > 1 µM
